Origin of the recorded values: patent US20220332774A1

System: H4-IIE Cells
PROTOCOL_NOTES: Glucose production in cultured H4-IIE cells
Type: cell-based, rat
CONDITION_INFO: glucose concentration in medium relative to untreated cells; 5 μM peptide, 24 h
Kindly state Percent of Control Activity for each of the entries shown.
Quick reminder: number only, in %, skip the unit.

Record request: Percent of Control Activity value, item 32 (MGGEWGMGVWTWGCFLVWM) [compound 32]
100

Record request: Percent of Control Activity value, item 152 (MVRMLLVQWW) [compound 152]
89

Record request: Percent of Control Activity value, item 72 (MLQGQAHLSILFSI) [compound 72]
107

Record request: Percent of Control Activity value, item 86 (MMLSWDDIIYGG) [compound 86]
108

Record request: Percent of Control Activity value, item 60 (MLEIVMGMETYHMSNA) [compound 60]
105

Record request: Percent of Control Activity value, item 89 (MMNSDSIIPS) [compound 89]
110

Record request: Percent of Control Activity value, item 102 (MPLRLEWVQWGVGGWPWVCC) [compound 102]
108

Record request: Percent of Control Activity value, item 208 (CHWAGGASNTGDA) [compound 208]
107

Record request: Percent of Control Activity value, item 68 (MLLNSHRCSMSKDNHHSP) [compound 68]
105

Record request: Percent of Control Activity value, item 44 (MGVKFFTLST) [compound 44]
103

Record request: Percent of Control Activity value, item 75 (MLTPGLVNFVPATAVTRLTQVN) [compound 75]
112

Record request: Percent of Control Activity value, item 29 (MGDCAVCDA) [compound 29]
106

====

System: H4-IIE Cells
PROTOCOL_NOTES: Glucose production in cultured H4-IIE cells
Assay type: cell-based, rat
CONDITION_INFO: glucose concentration in medium relative to untreated cells; 5 μM peptide, 24 h
Kindly state Percent of Control Activity for each of the entries shown.
Quick reminder: number only, in %, skip the unit.

Record request: Percent of Control Activity value, item 184 (MASAKGCSSP) [compound 184]
118

Record request: Percent of Control Activity value, item 154 (MVSSGDWYSWCE) [compound 154]
98

Record request: Percent of Control Activity value, item 144 (MVIICFEVSLISHCWVVISRLLM) [compound 144]
105

Record request: Percent of Control Activity value, item 150 (MVLWWFGGSG) [compound 150]
87

Record request: Percent of Control Activity value, item 49 (MHLVFSSGGYARDSIA) [compound 49]
104

Record request: Percent of Control Activity value, item 190 (MYHSENSMMDHVTNNATGMNIMEK) [compound 190]
118

Record request: Percent of Control Activity value, item 148 (MVLNLRVHRLRRTNLQLLHTSPIIP) [compound 148]
109

Record request: Percent of Control Activity value, item 106 (MPTNLPTLNST) [compound 106]
107

Record request: Percent of Control Activity value, item 117 (MSKKIPATTMVLEWS) [compound 117]
121

Record request: Percent of Control Activity value, item 9 (MAQTMPMYPNGSFFPE) [compound 9]
90

Record request: Percent of Control Activity value, item 93 (MMWKTIVVFQLQEHQWPQYAKLTP) [compound 93]
120

Record request: Percent of Control Activity value, item 138 (MTSPKIQNNNTPDHTANNQY) [compound 138]
92

Record request: Percent of Control Activity value, item 65 (MLKPETSSDSPSA) [compound 65]
102

Record request: Percent of Control Activity value, item 116 (MSGVRKEVSLL) [compound 116]
123

Record request: Percent of Control Activity value, item 130 (MTAPVKLQGVWM) [compound 130]
97

Record request: Percent of Control Activity value, item 198 (PIVTIMSPSWLEVEKATIFLMSFC) [compound 198]
100

Record request: Percent of Control Activity value, item 124 (MSSAWIIWFRLFSI) [compound 124]
97

Record request: Percent of Control Activity value, item 145 (MVKPHLQNASI) [compound 145]
102

Record request: Percent of Control Activity value, item 159 (MWGVSDMLVFLEV) [compound 159]
111

Record request: Percent of Control Activity value, item 161 (MWLIEEYAMSDF) [compound 161]
114

Record request: Percent of Control Activity value, item 118 (MSLSYLQDSTY) [compound 118]
126

Record request: Percent of Control Activity value, item 111 (MQRWFFMSLVVVVVRA) [compound 111]
91

Record request: Percent of Control Activity value, item 179 (MSSSMMGEVASC) [compound 179]
100

Record request: Percent of Control Activity value, item 194 (LSPKPQQLNQQNCSPEHYEPQLKT) [compound 194]
109

Record request: Percent of Control Activity value, item 113 (MQTKSLQSPQ) [compound 113]
134
